Cited source: patent US8163793B2

tgt: Cathepsin S (UniProt P25774)
assay_method_text: Cathepsin enzyme inhibition assay (fluorogenic peptide substrate Z-Val-Val-Arg-AMC), Cathepsin S
Format: biochemical, human and mouse
condition_set: enzyme 1 nM, substrate 20 μM, pH 6.5; read-out: CatS IC50
endpoint_label: IC50 (nM)

I. CC(C)(C)OC(=O)N1C[C@H](S(=O)(=O)c2ccc(-n3ccnc3)cc2)C[C@H]1C(=O)NC1(C#N)CC1 [Example 3]
II. N#CC1(NC(=O)[C@@H]2C[C@@H](S(=O)(=O)c3ccccc3Cl)CN2CC(F)(F)F)CC1 [Example 89]
III. CC1(C(=O)N2C[C@H](S(=O)(=O)c3ccc(F)cc3C(F)(F)F)C[C@H]2C(=O)NC2(C#N)CC2)CC1 [Example 344]
// query Please arrange the 3 compounds above from largest to smallest IC50 value. The response must list the labels following the requested ordering.
// result II, I, III
